# subject.of.test: T1, recombinant human IL-31 (hIL-31, BHK produced, A1277F, zcytor17lig CEE) (human, UniProt Q6EBC2 24-164)
# T1 construct: also called recombinant hIL-31
# T1 sequence: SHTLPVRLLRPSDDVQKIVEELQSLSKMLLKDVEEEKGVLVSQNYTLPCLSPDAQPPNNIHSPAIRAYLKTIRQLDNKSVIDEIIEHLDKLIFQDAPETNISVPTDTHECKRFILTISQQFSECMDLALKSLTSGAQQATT
# assay: SPR (Biacore), against parent 292.12.3.1
Relative potency loss (KD) overview

# count of solved cases: 4
- binder: "humanized 292.12.3.1 construct clone 27 (12VH1-gly + HC(F29L, M69L, R94F) + LC(F71Y)) (antibody, human IgG4, V domains shown) VH: QVQLVQSGAEVKKPGASVKVSCKASGYTLTRYWMQWVRQAPGQGLEWMGAIYPGDGDTRYSQKFQGRVTLTRDTSISTVYMELSSLRSEDTAVYYCAFPDGYYAAPYGMDYWGQGTLVTVSS VL: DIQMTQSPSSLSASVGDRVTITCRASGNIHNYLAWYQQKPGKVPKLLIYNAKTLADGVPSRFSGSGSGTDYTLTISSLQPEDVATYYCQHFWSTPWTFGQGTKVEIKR"
  Relative potency loss (KD): "~0.5 x to parent"
- binder: "humanized 292.12.3.1 construct clone 33 (12VH1(germ)-gly + fback) (antibody, human IgG4, V domains shown) VH: QVQLVQSGAEVKKPGASVKVSCKASGYTLTRYWMQWVRQAPGQGLEWMGAIYPGDGDTRYSQKFQGRVTLTADKSTSTAYMELSSLRSEDTAVYYCAFPDGYYAAPYGMDYWGQGTLVTVSS VL: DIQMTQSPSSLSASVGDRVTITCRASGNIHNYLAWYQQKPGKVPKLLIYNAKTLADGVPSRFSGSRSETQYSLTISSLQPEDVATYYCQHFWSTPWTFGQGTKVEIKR"
  Relative potency loss (KD): "~0.6 x to parent"
- binder: "humanized 292.12.3.1 construct clone 18 (12VH1-gly + HC(fback) + LC(G66R, G68E, F71Y)) (antibody, human IgG4, V domains shown) VH: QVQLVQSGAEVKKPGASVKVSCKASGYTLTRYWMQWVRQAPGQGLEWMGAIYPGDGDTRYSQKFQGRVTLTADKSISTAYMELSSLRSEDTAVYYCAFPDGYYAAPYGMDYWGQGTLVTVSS VL: DIQMTQSPSSLSASVGDRVTITCRASGNIHNYLAWYQQKPGKVPKLLIYNAKTLADGVPSRFSGSRSETDYTLTISSLQPEDVATYYCQHFWSTPWTFGQGTKVEIKR"
  Relative potency loss (KD): "~0.5 x to parent"
- binder: "humanized 292.12.3.1 construct clone 16 (12VH1-gly + HC(fback) + LC(G66R, G68E, D70Q, T72S)) (antibody, human IgG4, V domains shown) VH: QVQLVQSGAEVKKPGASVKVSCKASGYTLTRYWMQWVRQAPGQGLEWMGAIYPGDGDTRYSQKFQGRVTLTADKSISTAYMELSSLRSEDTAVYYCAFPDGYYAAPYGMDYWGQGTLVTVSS VL: DIQMTQSPSSLSASVGDRVTITCRASGNIHNYLAWYQQKPGKVPKLLIYNAKTLADGVPSRFSGSRSETQFSLTISSLQPEDVATYYCQHFWSTPWTFGQGTKVEIKR"
  Relative potency loss (KD): "~0.5 x to parent"

We next turn to a different binder, shown below.
Problem: Item under review: humanized 292.12.3.1 construct clone 26 (12VH1-gly + HC(fback) + LC(F71Y)) (antibody, human IgG4, V domains shown) VH: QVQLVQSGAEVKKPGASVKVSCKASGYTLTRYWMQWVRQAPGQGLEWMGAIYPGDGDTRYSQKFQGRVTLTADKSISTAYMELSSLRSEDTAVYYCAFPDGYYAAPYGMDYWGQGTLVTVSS VL: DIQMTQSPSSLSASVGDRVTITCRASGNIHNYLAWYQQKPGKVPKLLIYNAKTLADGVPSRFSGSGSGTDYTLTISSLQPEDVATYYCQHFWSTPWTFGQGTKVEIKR . Reported Relative potency loss (KD)?
Solution: ~0.4 x to parent
